Every entry's value here was drawn from the Biogen ADME set (Fang et al. 2023).

# experimental_conditions: pH 6.8
property_measured: aqueous solubility (µg/mL)
Reply with just the number (in µg/mL).

Worked set:
compound: CSc1ccc(-c2ccc3n(c2=O)C[C@H]2C[C@@H]3CN(C(=O)c3ccncc3)C2)cc1
property_measured: aqueous solubility
recorded_value: 37.5
--
compound: NC(=O)CN1CCC(Oc2cccc(F)c2)CC1
property_measured: aqueous solubility
recorded_value: 60.8
--
compound: COCC(=O)N1CCN2C(=O)NC[C@H]2C1
property_measured: aqueous solubility
recorded_value: 38.4
--
compound: O=C(c1cc(Oc2cccc(F)c2)nc2ccccc12)N1CCOCC1
property_measured: aqueous solubility
recorded_value: 16.1
--
compound: CCOC(=O)C1(Cc2cc(-c3ccc(F)cc3)no2)CCN(Cc2ccccc2O)CC1
property_measured: aqueous solubility
recorded_value: 6.94
--
compound: CCNc1ccnc(N(C)Cc2nc3ccccc3n2C)n1
property_measured: aqueous solubility
recorded_value: 37
--
compound: O=C1CSc2ccc(C(=O)Nc3cc(C4CC4)n[nH]3)cc2N1
property_measured: aqueous solubility
recorded_value: 4.31
--
compound: O=C(CCCOc1ccccc1)N1CCCC1
property_measured: aqueous solubility
recorded_value: 30.5

## Input Return the recorded aqueous solubility value; entry: Cc1ccc(NC(=O)c2c([O-])n(-c3ccc(C)cc3)n[n+]2Cc2ccccc2)cc1
## Output 0.21

## Input Return the recorded aqueous solubility value; entry: CC(C(=O)Nc1ccc(C(N)=O)cc1)N1CCCC(c2nc3ccccc3o2)C1 (configuration not stated)
## Output 56.5

## Input Return the recorded aqueous solubility value; entry: O=C(NCc1ncc(-c2ccccc2)o1)C1CCCCC1
## Output 75.9

## Input Return the recorded aqueous solubility value; entry: CC(C)(C)c1csc(CCNC(=O)N2CCSCC2)n1
## Output 69.1
